Target protein (sequence): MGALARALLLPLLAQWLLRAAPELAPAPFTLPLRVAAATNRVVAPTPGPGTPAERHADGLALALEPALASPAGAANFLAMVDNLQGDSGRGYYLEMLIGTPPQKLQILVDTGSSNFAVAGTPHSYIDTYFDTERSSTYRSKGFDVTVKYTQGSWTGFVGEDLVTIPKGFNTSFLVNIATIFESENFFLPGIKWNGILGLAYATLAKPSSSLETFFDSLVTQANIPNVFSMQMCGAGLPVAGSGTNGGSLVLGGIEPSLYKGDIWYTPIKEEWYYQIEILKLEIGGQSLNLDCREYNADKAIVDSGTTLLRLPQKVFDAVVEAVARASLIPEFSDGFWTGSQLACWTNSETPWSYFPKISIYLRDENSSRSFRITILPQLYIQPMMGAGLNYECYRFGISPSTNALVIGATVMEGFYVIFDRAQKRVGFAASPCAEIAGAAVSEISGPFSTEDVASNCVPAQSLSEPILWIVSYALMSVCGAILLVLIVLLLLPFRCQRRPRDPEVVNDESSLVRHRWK
The entries below pair molecules with IC50 values for the protein given by its sequence, as found in several publications.
MEASURED_METRIC: IC50 (nM)

a: NC1=N[C@](CF)(c2cc(Nc3nccc4nc(OCc5ncco5)cnc34)ccc2F)[C@@H]2C[C@]2(c2c[nH]nn2)S1
b: CCc1cn2c3c(cc(C(=O)N[C@@H](Cc4ccccc4)[C@H](O)CNC4CCOCC4)cc13)N(C)S(=O)(=O)CC2
c: NC1=N[C@](CF)(c2cc(Nc3ncnc4cc(Cl)cnc34)ccc2F)[C@H]2C[C@@H]2S1
d: CCNc1cc(C(=O)N[C@@H](Cc2ccccc2)[C@H](O)CNCc2cccc(C(F)(F)F)c2)cc(N2CCCCS2(=O)=O)c1
Q: Arrange the 4 entries by IC50 so the values rise. Return the labels ranked in the requested order, please.
Result: a, c, b, d
(a: 5.38 nM, c: 27.8 nM, b: 490 nM, d: 1410 nM)
